Taken from patent US11377442B2.

# Measured On: ERα (Homo sapiens, UniProt P03372)
# Construct: expressed in transfected cells
# Sequence (P03372 1-595): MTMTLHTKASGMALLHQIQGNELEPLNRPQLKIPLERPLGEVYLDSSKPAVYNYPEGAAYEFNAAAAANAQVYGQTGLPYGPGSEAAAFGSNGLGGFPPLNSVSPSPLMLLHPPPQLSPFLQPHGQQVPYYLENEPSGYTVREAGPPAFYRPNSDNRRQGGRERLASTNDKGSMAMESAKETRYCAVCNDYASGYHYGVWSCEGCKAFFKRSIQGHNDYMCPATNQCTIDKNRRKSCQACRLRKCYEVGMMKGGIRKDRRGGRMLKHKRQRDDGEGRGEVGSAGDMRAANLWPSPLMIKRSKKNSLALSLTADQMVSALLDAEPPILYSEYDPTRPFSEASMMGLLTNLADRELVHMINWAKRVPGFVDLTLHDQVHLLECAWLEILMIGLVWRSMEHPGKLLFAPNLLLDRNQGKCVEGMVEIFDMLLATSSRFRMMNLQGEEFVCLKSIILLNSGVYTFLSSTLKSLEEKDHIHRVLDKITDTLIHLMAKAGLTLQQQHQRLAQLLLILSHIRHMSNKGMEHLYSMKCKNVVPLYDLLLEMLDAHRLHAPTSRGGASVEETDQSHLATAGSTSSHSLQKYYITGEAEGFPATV
# Assay Remarks: Counterscreening, Firefly signal with ERα transient transfection (Firefly_ERa)
# Assay type: cell-based
# Details: Table 15; 40 uM
Reported Endpoint: Firefly ERalpha transient, cmpd/DMSO (mean)

Field: example entries. Status: answers known.
Compound	Value Measured
CCOC(=O)c1cnc2c(C)cc(C)cc2c1NCCCN1CCCCC1 [Compound Z17]	2.9
CCOC(=O)c1cnc2c(C)cc(C)cc2c1NCCCN1CCCCC1 [Compound Z10]	0.5
CCOC(=O)c1cnc2c(C)cc(C)cc2c1NCCCO [Compound Z70]	1.5
CC(=O)Nc1ccc(Br)c2nonc12 [Compound Z14]	1.0
CCOC(=O)c1cnc2c(C)cc(C)cc2c1N1CCC(C)CC1 [Compound Z76]	0.7

P. CCOC(=O)c1cnc2c(C)cc(C)cc2c1NCCCOC [Compound Z71]
Q. CCOC(=O)c1cnc2c(C)cc(C)cc2c1N1CCC(O)CC1 [Compound Z78]
Asked: // max by Firefly ERalpha transient, cmpd/DMSO (mean) over [ P , Q ] Answer with the label corresponding to your selection.
Given back: Q
(Q: 1.1, P: 0.4)

P. COc1cccc(-c2noc(Cn3ncc4ccccc4c3=O)n2)c1 [Compound Z6]
Q. CCOC(=O)c1cnc2c(C)cc(C)cc2c1NCCCN1CCCC1 [Compound Z61]
Asked: Higher Firefly ERalpha transient, cmpd/DMSO (mean) between P and Q ? Give the label of your selection.
Given back: P

----------
# Measured On: ERα (Homo sapiens)
# Construct: expressed in transfected cells
# Assay Remarks: Counterscreening, Firefly signal with ERα transient transfection (Firefly_ERa)
# Assay type: cell-based
# Details: 2 uM
Reported Endpoint: Firefly ERalpha transient, cmpd/DMSO (mean)

Here is how some molecules turned out for Firefly ERalpha transient, cmpd/DMSO (mean).
Molecule	Measured On	Value Measured
COc1ccc(-c2cc3n(n2)C(N)=C(C#N)C(c2ccc(N4CCOCC4)cc2)(C(F)(F)F)N3)cc1OC (stereo not shown)	ERα (Homo sapiens)	0.8
CCOC(=O)c1cnc2c(Cl)cc(Cl)cc2c1NCCCN1CCCCC1	ERα (Homo sapiens)	1.1

I. Cc1cc(-c2ccccc2)nc(Nc2nc(-c3ccccc3)c(CC(=O)O)s2)n1
II. Cc1cc(C)c2ncc(C(=O)O)c(NCCCN(C)C)c2c1
Asked: Hi! Which is lower in terms of Firefly ERalpha transient, cmpd/DMSO (mean), the first one I or the second one II ? Pick one; state its label.
Given back: I
